// reported fraction fluorescent probe displaced, Replicate per item
# Assay system: MDM2 (Homo sapiens, UniProt Q00987)
# Sequence (Q00987 whole entry): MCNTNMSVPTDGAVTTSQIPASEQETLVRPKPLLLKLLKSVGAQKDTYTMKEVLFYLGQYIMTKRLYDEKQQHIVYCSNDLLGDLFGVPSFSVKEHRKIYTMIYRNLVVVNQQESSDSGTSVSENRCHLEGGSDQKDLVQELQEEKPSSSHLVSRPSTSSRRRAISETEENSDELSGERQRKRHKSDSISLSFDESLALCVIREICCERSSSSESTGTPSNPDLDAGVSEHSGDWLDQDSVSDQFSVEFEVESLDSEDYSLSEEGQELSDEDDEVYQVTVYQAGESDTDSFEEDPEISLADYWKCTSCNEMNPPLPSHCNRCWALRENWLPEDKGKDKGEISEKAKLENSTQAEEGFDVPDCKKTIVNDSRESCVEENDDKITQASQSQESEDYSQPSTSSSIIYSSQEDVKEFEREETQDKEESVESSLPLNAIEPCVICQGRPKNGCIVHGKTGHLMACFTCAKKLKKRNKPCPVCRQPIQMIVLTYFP
# Assay method text: MDM2 binding screen: displacement of fluorescent p53 peptide probe FP53 (fluorescence polarization)
# Setup conditions: Acid 14; replicate; crude macrocycle reactions
API note: the answer field is a bare number with no unit suffix.

Look over these answered cases.
>  <Compound>
O=C1CCSSCCNC(=O)[C@H](Cc2c[nH]c3ccccc23)NC(=O)c2cccc(c2)CNC(=O)[C@H](CNC(=O)c2ccc(Cl)s2)N1

>  <Recorded measurement>
0.20

$$$$
>  <Compound>
O=C1CCSSCCNC(=O)c2cccc(c2)CNC(=O)C(Cc2c[nH]c3ccccc23)NC(=O)C2(CCN(C(=O)c3ccc(Cl)s3)CC2)N1 (stereo not drawn)

>  <Recorded measurement>
0.25

$$$$

Let us examine a further case.
Query block: Give its fraction fluorescent probe displaced, Replicate value. Item: `O=C(N[C@H]1C[C@H]2C(=O)N[C@@H](Cc3c[nH]c4ccccc34)C(=O)NCCSSCCC(=O)N3CCC[C@@H](C3)C(=O)N2C1)c1ccc(Cl)s1`
Result block: 0.0211

* * *

# Assay system: MDM2 (Homo sapiens, UniProt Q00987)
# Assay method text: MDM2 binding screen: displacement of fluorescent p53 peptide probe FP53 (fluorescence polarization)
# Setup conditions: Acid 14; replicate; crude macrocycle reactions
Numbered stars: 1 amine (or outer) side, 2 acyl side, 3 side chain; on linkers, the order of the positions; unused ones are H or OH. Bridge positions count the residues as written; N and C are the ends. Square brackets hold non-standard residues; d marks the D form. Peptide text beside a SMILES is read from it. * marks the point of attachment. 2Thenoyl(5-Cl) = O=C(c1ccc(Cl)s1)*; Cysteamide = C(CS[*:3])N[*:1]; Api = NC1(C(=O)O)CCNCC1; Mpa = O=C(O)CCS
Criterion: fraction fluorescent probe displaced, Replicate strictly under 0.05. Met: 1. Not met: -1.

>  <Molecule>
O=C1CCSSCCNC(=O)[C@H](Cc2ccccc2)NC(=O)CCNC(=O)[C@H](CNC(=O)c2ccc(Cl)s2)N1

>  <Group label>
-1

$$$$
>  <Molecule>
O=C1CCSSCCNC(=O)C2(CCN(C(=O)c3ccc(Cl)s3)CC2)NC(=O)[C@H]2CCCN(C2)C(=O)[C@H](Cc2ccccc2)N1

>  <Group label>
-1

$$$$
>  <Molecule>
O=C1CCSSCCNC(=O)C2(CCN(C(=O)c3ccc(Cl)s3)CC2)NC(=O)[C@H]2CCCN(C2)C(=O)[C@H](Cc2c[nH]c3ccccc23)N1

>  <Group label>
-1

$$$$
>  <Molecule>
O=C1CCSSCCNC(=O)C(CNC(=O)c2ccc(Cl)s2)NC(=O)c2cccc(c2)CNC(=O)C(Cc2ccccc2)N1 (stereo not shown)

>  <Group label>
1

$$$$

Query block: Consider the molecule O=C1CCNC(=O)C(Cc2c[nH]c3ccccc23)NC(=O)C2CC(NC(=O)c3ccc(Cl)s3)CN2C(=O)CCSSCCN1 (stereo not shown) . Is its fraction fluorescent probe displaced, Replicate strictly less than 0.05?
Result block: -1

Query block: Hi there! Is fraction fluorescent probe displaced, Replicate for O=C1NC2(CCN(C(=O)c3ccc(Cl)s3)CC2)C(=O)NCCSSCCC(=O)N2CCC[C@H]2C(=O)N[C@H]1Cc1c[nH]c2ccccc12 [X B1 W D6 Acid 14] ([Mpa]PW[Api](2Thenoyl(5-Cl))-Cysteamide; disulfide 1-C) below 0.05, do you know?
Result block: -1

Query block: Criterion: fraction fluorescent probe displaced, Replicate strictly below 0.05. Is it met by `O=C1CCSSCCNC(=O)[C@@H]2C[C@H](NC(=O)c3ccc(Cl)s3)CN2C(=O)[C@H](Cc2ccccc2)NC(=O)c2cccc(c2)CN1` ?
Result block: 1

* * *

# Assay system: MDM2 (Homo sapiens, UniProt Q00987)
# Assay method text: MDM2 binding screen: displacement of fluorescent p53 peptide probe FP53 (fluorescence polarization)
# Setup conditions: 10 µM macrocycle concentration; crude acylated macrocycle (scaffold Mpa-AA1-AA2-AA3 x carboxylic acid); p53-based fluorescent peptide, human MDM2
Numbered stars: 1 amine (or outer) side, 2 acyl side, 3 side chain; on linkers, the order of the positions; unused ones are H or OH. Bridge positions count the residues as written; N and C are the ends. Square brackets hold non-standard residues; d marks the D form. Peptide text beside a SMILES is read from it. * marks the point of attachment. Pentanoyl(4-Me) = CC(C)CCC(=O)*; Cysteamide = C(CS[*:3])N[*:1]; Dap = NC[C@H](N)C(=O)O; X15 = O=C(c1cc[nH]n1)*; Mpa = O=C(O)CCS
Measurement name: fraction fluorescent probe displaced
Write no unit; give the number alone.

>  <Compound>
O=C(NC[C@@H]1NC(=O)[C@@H]2CCCN2C(=O)CCSSCCNC(=O)[C@H](Cc2c[nH]c3ccccc23)NC1=O)c1cc[nH]n1 [X-B1-D3-W + A5] ([Mpa]P[Dap](X15)W-Cysteamide; disulfide 1-C)

>  <Recorded measurement>
0.05625

$$$$

Query block: If you can, please state the reported fraction fluorescent probe displaced value of CC(C)CCC(=O)NC[C@@H]1NC(=O)[C@@H]2CCCN2C(=O)CCSSCCNC(=O)[C@H](Cc2ccccc2)NC1=O [X-B1-D3-F + A68] ([Mpa]P[Dap](Pentanoyl(4-Me))F-Cysteamide; disulfide 1-C) .
Result block: -0.1369

* * *

# Assay system: MDM2 (Homo sapiens, UniProt Q00987)
# Assay method text: MDM2 binding screen: displacement of fluorescent p53 peptide probe FP53 (fluorescence polarization)
# Setup conditions: Acid 14; initial screen; crude macrocycle reactions
Numbered stars: 1 amine (or outer) side, 2 acyl side, 3 side chain; on linkers, the order of the positions; unused ones are H or OH. Bridge positions count the residues as written; N and C are the ends. Square brackets hold non-standard residues; d marks the D form. Peptide text beside a SMILES is read from it. * marks the point of attachment. 2Thenoyl(5-Cl) = O=C(c1ccc(Cl)s1)*; Cysteamide = C(CS[*:3])N[*:1]; Dap = NC[C@H](N)C(=O)O; Mpa = O=C(O)CCS
Measurement name: fraction fluorescent probe displaced, Screen
Answer as a number with no unit attached.

Consider the worked cases shown below.
>  <Compound>
O=C1CCNC(=O)C2CC(NC(=O)c3ccc(Cl)s3)CN2C(=O)CCSSCCNC(=O)C(Cc2ccccc2)N1 (stereo not shown)

>  <Assay system>
MDM2 (Homo sapiens, UniProt Q00987)

>  <Recorded measurement>
-0.0337

$$$$
>  <Compound>
O=C(NC[C@@H]1NC(=O)[C@H](Cc2ccccc2)NC(=O)[C@@H]2CCCN2C(=O)CCSSCCNC1=O)c1ccc(Cl)s1 [X B1 F D3 Acid 14] ([Mpa]PF[Dap](2Thenoyl(5-Cl))-Cysteamide; disulfide 1-C)

>  <Assay system>
MDM2 (Homo sapiens, UniProt Q00987)

>  <Recorded measurement>
0.08

$$$$
>  <Compound>
O=C1NCCSSCCC(=O)N2CC(NC(=O)c3ccc(Cl)s3)CC2C(=O)NC(Cc2ccccc2)C(=O)NCc2cccc1c2 (stereo not shown)

>  <Assay system>
MDM2 (Homo sapiens, UniProt Q00987)

>  <Recorded measurement>
0.11

$$$$
>  <Compound>
O=C1CCSSCCNC(=O)c2cccc(c2)CNC(=O)C2(CCN(C(=O)c3ccc(Cl)s3)CC2)NC(=O)[C@H](Cc2ccccc2)N1

>  <Assay system>
MDM2 (Homo sapiens, UniProt Q00987)

>  <Recorded measurement>
0.053

$$$$

Query block: What value of fraction fluorescent probe displaced, Screen has been reported for the following compound? `O=C(NC[C@@H]1NC(=O)[C@H](Cc2c[nH]c3ccccc23)NC(=O)[C@H]2CCCN(C2)C(=O)CCSSCCNC1=O)c1ccc(Cl)s1`
Result block: 0.11

* * *

# Assay system: MDM2 (Homo sapiens, UniProt Q00987)
# Assay method text: MDM2 binding screen: displacement of fluorescent p53 peptide probe FP53 (fluorescence polarization)
# Setup conditions: Acid 14; initial screen; crude macrocycle reactions
Numbered stars: 1 amine (or outer) side, 2 acyl side, 3 side chain; on linkers, the order of the positions; unused ones are H or OH. Bridge positions count the residues as written; N and C are the ends. Square brackets hold non-standard residues; d marks the D form. Peptide text beside a SMILES is read from it. * marks the point of attachment. ξ: configuration not given here. ξPro(4-NHCO(5-Cl-2-thienyl)) = O=C(NC1CNC(C(=O)O)C1)c1ccc(Cl)s1; 2Thenoyl(5-Cl) = O=C(c1ccc(Cl)s1)*; Cysteamide = C(CS[*:3])N[*:1]; Api = NC1(C(=O)O)CCNCC1; Mpa = O=C(O)CCS
Measurement name: fraction fluorescent probe displaced, Screen
Kindly provide the number alone.

>  <Compound>
O=C1CCSSCCNC(=O)C2(CCN(C(=O)c3ccc(Cl)s3)CC2)NC(=O)[C@@H]2CCCN2C(=O)[C@H](Cc2c[nH]c3ccccc23)N1 [X W B1 D6 Acid 14] ([Mpa]WP[Api](2Thenoyl(5-Cl))-Cysteamide; disulfide 1-C)

>  <Recorded measurement>
0.08

$$$$

Attention now turns to another entry.
Query block: Which fraction fluorescent probe displaced, Screen value belongs to O=C1CCSSCCNC(=O)C2CC(NC(=O)c3ccc(Cl)s3)CN2C(=O)C2CCCN2C(=O)C(Cc2c[nH]c3ccccc23)N1 (centres unmarked) [X W B1 D5 Acid 14] ([Mpa]WP[ξPro(4-NHCO(5-Cl-2-thienyl))]-Cysteamide; disulfide 1-C; configuration not given here) ?
Result block: 0.0241
